Experiment: Solubility test of crystal form B in different solvents
Format: physicochemical
Settings: thermodynamic from solid; water, 4 h; read-out: Solubility (mg/mL) 4 h
assayMetric: solubility at 4 h (mg/mL)

| smilesString | endpointUnit | numericResult |
| --- | --- | --- |
| CCn1nnc(-c2ccc(OCCC(C)(C)CCN3CCN(c4ccnc(N)c4)S3(=O)=O)nc2)n1 | mg/mL | 416 |

---

Assay: Solubility test of crystal form B in different solvents
Assay type: physicochemical
Details: aqueous buffer, thermodynamic from solid; pH 6.5 buffer solution, 4 h; read-out: Solubility (mg/mL) 4 h

| compound | solubility at 4 h |
| --- | --- |
| CCn1nnc(-c2ccc(OCCC(C)(C)CCN3CCN(c4ccnc(N)c4)S3(=O)=O)nc2)n1 [Compound 2] | < 0.1 mg/mL |

src = patent US10227339B2
